B1: LINE1-mini (parent)
chain: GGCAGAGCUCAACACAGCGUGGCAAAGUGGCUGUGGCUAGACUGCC

Variants of: B1
Protocol text: self-cleavage, relative activity (ratio to wild type); higher = more cleavage; in vitro, sequencing; the parent is a self-cleaving ribozyme
# self-cleavage values compiled below
// keep it numeric: no unit symbol after the value

Study these solved cases before continuing.
1. A11G U43A    0.01
2. A11U C42U    0.02
3. G19C U28A    1.2
4. C8G U28G    0.06
5. G19C A25U    0.26

Report self-cleavage for G21C A24G
0.44

Report self-cleavage for C3A G33U
0.15

Report self-cleavage for G5A C37U
0.13

Report self-cleavage for G22A A39G
0.17

Report self-cleavage for C15A C46A
0.09

Report self-cleavage for U32C A41G
0.07

Report self-cleavage for A25U U38C
0.31

Report self-cleavage for A6U U34A
0.06
